Each item that follows carries a reported cell viability.
Tested on: MARIMO;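 also: after 48 h exposure read by CellTiter-Glo luminescence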
METHOD_SUMMARY: cell viability relative to vehicle control; higher = less cytotoxic
MEASUREMENT_PARAMETERS: 10 µM; SRSF2 genotype: SRSF2 P95H/wt
Structures can show the parent of a compound that is named as a salt.
MEASUREMENT_TYPE: cell viability (%)

molecule="CC(=O)OCC(=O)[C@@]1(O)CC[C@H]2[C@@H]3CCC4=CC(=O)CC[C@]4(C)[C@H]3C(=O)C[C@@]21C [Cortisone acetate (Cortone)]" uom=% result=118
molecule="C[C@H]1C[C@@H]2[C@H]([C@@H](O)C[C@@]3(C)[C@H]2CC[C@]3(O)C(=O)CO)[C@@]2(C)C=CC(=O)C=C12 [Methylprednisolone]" uom=% result=110
molecule=CC(=O)O/N=C1\C(=O)N(Cc2cc(Cl)ccc2Cl)c2ccc(Cl)cc21 uom=% result=15.6
molecule="CN(C)Cc1ccc(S(=O)(=O)n2ccc(/C=C/C(=O)NO)c2)cc1 [Resminostat (RAS2410)]" uom=% result=2.94
molecule=CN1CCN(Cc2ccc(NC(=O)Cc3ccc(Oc4cc(NC(=O)C5CC5)ncn4)cc3)cc2C(F)(F)F)CC1 uom=% result=4.48
molecule="CS(=O)(=O)N1CCN(Cc2cc3nc(-c4cccc5[nH]ncc45)nc(N4CCOCC4)c3s2)CC1 [Pictilisib (GDC-0941)]" uom=% result=64.3
molecule="CC(C)c1nc(CN(C)C(=O)N[C@H](C(=O)N[C@@H](Cc2ccccc2)C[C@H](O)[C@H](Cc2ccccc2)NC(=O)OCc2cncs2)C(C)C)cs1 [Ritonavir]" uom=% result=81.9
molecule=CC(C)c1cnn2c(NCc3ccccc3)cc(NCCCCCCN)nc12 uom=% result=89.9
molecule=Nc1cccc(-c2cc3c(Oc4cccc(O)c4)ncnc3[nH]2)c1 uom=% result=84.4
molecule=Cc1ccc(Sc2ccccc2N2CCNCC2)c(C)c1 uom=% result=6.07
molecule="CC=C(C)C(=O)O [Tiglic acid]" uom=% result=101
molecule="O=C(O)COCCN1CCN([C@H](c2ccccc2)c2ccc(Cl)cc2)CC1 [Levocetirizine Dihydrochloride]" uom=% result=93.2
molecule=Cc1nnsc1C(=O)Nc1ccc(-n2nc(C(F)(F)F)cc2C(F)(F)F)cc1 uom=% result=86.6
molecule=CCN1CCN(Cc2ccc(-c3cc4c(N[C@H](C)c5ccccc5)ncnc4[nH]3)cc2)CC1 uom=% result=52.9
molecule="Cc1[nH]c(/C=C2\\C(=O)Nc3ccc(F)cc32)c(C)c1C(=O)NCCN1CCCC1 [Toceranib phosphate]" uom=% result=64
molecule="C=C(CCC=C(C)C)[C@H]1CC[C@]2(C)[C@@H]1[C@H](O)C[C@@H]1[C@@]3(C)CC[C@H](O[C@@H]4O[C@H](CO)[C@@H](O)[C@H](O)[C@H]4O[C@@H]4O[C@H](CO)[C@@H](O)[C@H](O)[C@H]4O)C(C)(C)[C@@H]3CC[C@]12C [Ginsenoside Rk1]" uom=% result=105
molecule="C=C(C)[C@@H]1CC[C@]2(C(=O)O)CC[C@]3(C)[C@H](CC[C@@H]4[C@@]5(C)CCC(=O)C(C)(C)[C@@H]5CC[C@]43C)[C@@H]12 [Betulonic acid]" uom=% result=34.2
molecule="NCc1c[nH]c(=S)n1[C@@H]1CCc2c(F)cc(F)cc2C1 [(R)-Nepicastat HCl]" uom=% result=94.9
molecule="OCCN1C[C@H](O)[C@@H](O)[C@H](O)[C@H]1CO [Miglitol (Glyset)]" uom=% result=106
molecule=CCN(CC)CCN(Cc1ccc(-c2ccc(C(F)(F)F)cc2)cc1)C(=O)Cn1c(SCc2ccc(F)cc2)nc(=O)c2c1CCC2 uom=% result=0.34
molecule=Cn1cc(-c2ccncc2)c(-c2ccc(OCc3ccc4ccccc4n3)cc2)n1 uom=% result=93
molecule=C[C@@H]1CC(=O)Nc2cccc(-c3ccc4c(c3)c(-c3cnn(C)c3)nn4C)c2N1 uom=% result=55.1
molecule="C[C@H]1COc2c(N3CCN(C)CC3)c(F)cc3c(=O)c(C(=O)O)cn1c23 [Levofloxacin (Levaquin)]" uom=% result=90.4
molecule="Nc1nc(Cl)nc2c1ncn2[C@@H]1O[C@H](CO)[C@@H](O)[C@@H]1F [Clofarabine]" uom=% result=11.5
molecule="Cc1ncc(CO)c(CO)c1O [Pyridoxine hydrochloride]" uom=% result=104
molecule="CCCCCCCCc1ccc(CCC(N)(CO)CO)cc1 [Fingolimod (FTY720) HCl]" uom=% result=0.4
molecule="CCCN(CCC)CCc1cccc2c1CC(=O)N2 [Ropinirole HCl]" uom=% result=103
molecule="COc1ccc(-c2nc3cc(C4=NNC(=O)CC4C)ccc3[nH]2)cc1 (stereo unspecified) [Pimobendan (Vetmedin)]" uom=% result=65.5
molecule="CCCC1O[C@@H]2C[C@H]3[C@@H]4CCC5=CC(=O)C=C[C@]5(C)[C@H]4[C@@H](O)C[C@]3(C)[C@]2(C(=O)CO)O1 (stereo partly specified) [Budesonide]" uom=% result=97.6
molecule="COC(=O)c1ccc2c(C(=Nc3ccc(N(C)C(=O)CN4CCN(C)CC4)cc3)c3ccccc3)c(O)[nH]c2c1 [Nintedanib (BIBF 1120)]" uom=% result=39
molecule="CCCCCCCCC[C@H](O)CC(=O)CCc1ccc(O)c(OC)c1 [10-Gingerol]" uom=% result=91.1
